The measured values listed here are drawn from ChEMBL document CHEMBL5137070.

Test: AUC (0 to infinity) in Sprague-Dawley rat at 100 mg/kg, ip and measured upto 8 hrs by LC-MS/MS analysis
Type: ADME, organism-based
Design: dose 100 mg/kg, time < 8 hrs, route ip
Conditions: in vivo
quantity name: AUC(0-inf)

## Task Complete the entry with AUC(0-inf) for Cc1c(Cl)cccc1Nc1ccc(F)cc1C(=O)NCc1ccc(O)c(O)c1
## Result 18600 ng·h/mL

====

Target: DNA topoisomerase 1 (Homo sapiens, UniProt P11387)
Sequence (P11387 whole entry): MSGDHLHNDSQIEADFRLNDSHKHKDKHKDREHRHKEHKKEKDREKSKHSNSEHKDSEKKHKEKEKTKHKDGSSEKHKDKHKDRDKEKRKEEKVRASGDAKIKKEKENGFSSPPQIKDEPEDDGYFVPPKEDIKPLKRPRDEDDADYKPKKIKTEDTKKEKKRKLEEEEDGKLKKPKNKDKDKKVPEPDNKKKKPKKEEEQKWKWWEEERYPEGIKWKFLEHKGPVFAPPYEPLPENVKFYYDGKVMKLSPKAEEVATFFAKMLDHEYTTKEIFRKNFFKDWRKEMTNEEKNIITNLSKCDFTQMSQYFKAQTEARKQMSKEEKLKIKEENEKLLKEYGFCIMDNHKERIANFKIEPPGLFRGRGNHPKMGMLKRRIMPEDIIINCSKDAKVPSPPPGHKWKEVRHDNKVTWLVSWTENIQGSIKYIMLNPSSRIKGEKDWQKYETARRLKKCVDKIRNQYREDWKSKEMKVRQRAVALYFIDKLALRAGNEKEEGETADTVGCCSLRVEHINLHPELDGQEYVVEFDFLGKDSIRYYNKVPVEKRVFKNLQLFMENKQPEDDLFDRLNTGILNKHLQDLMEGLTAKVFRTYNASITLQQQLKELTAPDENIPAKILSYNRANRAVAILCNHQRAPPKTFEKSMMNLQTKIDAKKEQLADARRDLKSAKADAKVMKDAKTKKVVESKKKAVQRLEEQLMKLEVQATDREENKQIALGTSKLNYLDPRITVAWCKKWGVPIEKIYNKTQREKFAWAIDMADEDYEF
quantity name: pIC50
Give bare numbers, as −log10 of the molar value.

## Task Quick one: give measured pIC50 for Cc1c(Cl)cccc1Nc1ccc(F)cc1C(=O)NCc1ccc(O)c(O)c1
## Result 5.35
